Biological target: Follistatin-related protein 3 (Homo sapiens)
Test: FSTL3 binders on small-molecule microarrays, primary screen, biochemical, small-molecule microarray, 635 nm fluorescence (AID 1105);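 note: score merges emission near 667 nm and signal to noise per printed spot across three slides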
Details: FSTL3 binding, higher = more signal

compound	composite z-score
COc1ccc([Si](C)(C)[C@@H]2[C@@H](CCO)O[C@]3(C(=O)N(Cc4ccc(N5CCCCC5=O)cc4)c4ccccc43)[C@H]2C)cc1	0.87
CC(C)N1CC=CC23O[C@@H]4C=CCOC(=O)[C@@H]4[C@H]2C(=O)N(CCCO)[C@@H]3C1=O (stereo partly drawn)	-0.123
COC(=O)[C@H](Cc1ccccc1)N1CC(/C=C/C2CC2)=C[C@H]1[C@H](O)Cc1ccccc1	0.702
COC(=O)CCCCCCC(=O)Nc1ccc(NC(=O)CCCC[P+](c2ccccc2)(c2ccccc2)c2ccccc2)cc1	0.955
CCOC(=O)C1=CC[C@@H](c2cccc(Cl)c2)N(S(=O)(=O)c2ccc(C)cc2)C1	-0.0034
C=CCN1C(=O)[C@@]2(CCS(=O)(=O)c3ccccc3)N=C(c3ccc(OCCCO)cc3)O[C@H]2c2ccccc21	1.14
CN1C(=O)C2C=CC(C(O)c3ccc(F)cc3)N(Nc3ccccc3)C2C1=O (stereo not drawn)	0.578
O=c1n(-c2ccccc2)c(=O)n2n1CC(COc1ccccc1)=C([C@H](O)CCc1ccccc1)[C@@H]2CO	0.0711
